Tested on: EKVX
test_name: NCI tumour cell line growth inhibition, 48 h
Active and inactive are the calls of the source. Cut-off read from the data, not from the text of the source: active = GI50 up to about 1.1 µM and inactive = higher.
The categories you may choose from are active, inactive

Solved entries (count: 2):
INSERT INTO assay_data (compound, category) VALUES
  ('O=C(NCCN1CCCCC1)c1ccc(Br)cc1', 'inactive'),
  ('COc1cccc([C@H]2C/C(=N\NC(=O)C(=O)N[C@@H](C)c3ccccc3)c3ccccc3N2)c1', 'active');

Exercise: I would be grateful if you could indicate the recorded call for Nc1ccc2c(c1)NC(=O)[C@@H]1CCCN1C2=O .
Key: inactive

Exercise: I would be grateful if you could indicate the recorded call for CNC(=O)N(C)C(=O)c1ccccc1C(=O)N(C)C(=O)NC .
Key: inactive

Exercise: I would be grateful if you could indicate the recorded call for COC1(C)/C=N/CC(C)(C)NC(=O)C(C)(OC)/C=N/CC(C)(C)NC1=O (stereo not given) .
Key: inactive

The origin of these recorded values is ChEMBL document CHEMBL1201862.
